The origin of these recorded values is patent US20250011363A1.

Molecular target: acetylcholine receptor
Experiment: SPR, AchR immobilized on chip
observationType: Binding affinity (relative to RRQRR) (relative value to the RRQRR sequence)

- RRQRRG: 109
- RRQRRN: 109
- RRQRRL: 141
- TRRQRR: 103
- ARRQRR: 129
- RRQRRM: 122
- RRQRRA: 113
- KRRQRR: 173
- RRQRRW: 129
- MRRQRR: 119
- ERRQRR: 147
- WRRQRR: 138
- RRQRRT: 117
- IRRQRR: 121
- RRQRRR: 192
- PRRQRR: 133
- RRQRRP: 137
